// values below are reported LDH release cytotoxicity
System: HepaRG
Assay: LDH release cytotoxicity, % of total lysis control; higher = more cytotoxic
Conditions: 0.1 µM; 48 h
Where a name gives a salt, the structure may show the parent alone.

# molecule, LDH release cytotoxicity [%]
measured = [
    ("CCNc1nc(NC(C)C)nc(SC)n1 [Ametryn]", -1.18),
    ("O=c1n(Cl)c(=O)n(Cl)c(=O)n1Cl [Symclosene]", -0.82),
    ("CCOCCOCCOCCO [2-[2-(2-Ethoxyethoxy)ethoxy]ethanol]", -1.83),
    ("CCC(CC)Nc1c([N+](=O)[O-])cc(C)c(C)c1[N+](=O)[O-] [Pendimethalin]", -1.6),
    ("OCCCl [2-Chloroethanol]", -1.03),
    ("CCOC(=O)CC(O)(CC(=O)OCC)C(=O)OCC [Triethyl citrate]", -0.568),
]
